Tested on: Mo
Assay summary: cells;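 further: growth inhibition of human Mo-T cells, read out by a cell viability assay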
Type: functional, cell-based
Experimental conditions: Homo sapiens
Description: SANGER: Inhibition of human Mo-T cell growth in a cell viability assay.
// reported IC50 for each item listed

Record excerpt, results attached:
structure_notation=Cc1cc(Nc2cc(N3CCN(C)CC3)nc(Sc3ccc(NC(=O)C4CC4)cc3)n2)n[nH]1 value="> 2 µM"
structure_notation=C[C@]1(O)C[C@@H](c2nc(-c3ccc4ccc(-c5ccccc5)nc4c3)c3c(N)nccn32)C1 value="> 2.56 µM"
structure_notation=CO[C@H]1C[C@@H]2CC[C@@H](C)[C@@](O)(O2)C(=O)C(=O)N2CCCC[C@H]2C(=O)O[C@H]([C@H](C)C[C@@H]2CC[C@@H](O)[C@H](OC)C2)CC(=O)[C@H](C)/C=C(\C)[C@@H](O)[C@@H](OC)C(=O)[C@H](C)C[C@H](C)/C=C/C=C/C=C/1C value="> 0.1 µM"

State, in one line, measured IC50 of "C=CCNC1=C2C[C@@H](C)C[C@H](OC)[C@H](O)[C@@H](C)/C=C(\C)[C@H](OC(N)=O)[C@@H](OC)/C=C\C=C(/C)C(=O)NC(=CC1=O)C2=O" > 1 µM

Hello, please tell me recorded IC50 for this one: "COC(=O)CNC(=O)C(=O)OC" 1880 µM

State its IC50 for this compound: "CCC(=O)N1CCN(c2ccc(-n3c(=O)ccc4cnc5ccc(-c6cnc7ccccc7c6)cc5c43)cc2C(F)(F)F)CC1" > 1.2 µM
